Data credit: paper PMC7688903

Items are presented alongside their recorded remaining at 24 h, 0.5 mg/mL.
System: proteases secreted by P. aeruginosa ATCC 27853
Experiment: in vitro
Conditions: P. aeruginosa ATCC 27853 culture supernatant, pH 8
Where a SMILES comes first, the peptide text is derived from it. [ ]: non-standard residue; d: D form. hArg = N=C(N)NCCCC[C@H](N)C(=O)O; Dab = NCC[C@H](N)C(=O)O; Dap = NC[C@H](N)C(=O)O
Numbers only here, please. The scale is %.

{"Compound": "CC(C)C[C@H](NC(=O)[C@H](Cc1ccc(O)cc1)NC(=O)[C@H](CCN)NC(=O)[C@H](CC(C)C)NC(=O)[C@H](CC(C)C)NC(=O)[C@H](CN)NC(=O)[C@H](CN)NC(=O)[C@H](Cc1ccccc1)NC(=O)[C@H](CC(C)C)NC(=O)[C@H](CCCCNC(=N)N)NC(=O)[C@@H](N)CN)C(=O)N[C@@H](CCCCNC(=N)N)C(=O)N[C@@H](CCN)C(=O)N[C@@H](Cc1ccccc1)C(N)=O [UP14] (H-[Dap][hArg]LF[Dap][Dap]LL[Dab]YL[hArg][Dab]F-NH2)", "remaining at 24 h, 0.5 mg/mL [%]": 27.6}

Continue with the compound presented below.
**Query** Give measured remaining at 24 h, 0.5 mg/mL for CC(C)C[C@H](NC(=O)[C@H](Cc1ccc(O)cc1)NC(=O)[C@H](CCN)NC(=O)[C@H](CC(C)C)NC(=O)[C@H](CC(C)C)NC(=O)[C@H](CCN)NC(=O)[C@H](CCN)NC(=O)[C@H](Cc1ccccc1)NC(=O)[C@H](CC(C)C)NC(=O)[C@H](CCCCNC(=N)N)NC(=O)[C@@H](N)CCN)C(=O)N[C@@H](CCCNC(=N)N)C(=O)N[C@@H](CCN)C(=O)N[C@@H](Cc1ccccc1)C(N)=O [UP12] (H-[Dab][hArg]LF[Dab][Dab]LL[Dab]YLR[Dab]F-NH2) (proteases secreted by P. aeruginosa ATCC 27853).
**Result** 20.6

----------
Test system: human plasma proteases
Experiment: in vitro
Where no end group is shown, it is not given here.
Items are presented alongside their recorded metabolised at 4 h, 0.1 mg/mL.

These solved cases illustrate the format of a correct answer.
{"Substance": "KRLFKKLLKYLRKF-NH2 [Pep05]", "Test system": "human plasma proteases", "metabolised at 4 h, 0.1 mg/mL": "> 50%"}
{"Substance": "RRIFKRLFKYLRRF-NH2 [LP02]", "Test system": "human plasma proteases", "metabolised at 4 h, 0.1 mg/mL": "> 50%"}

Continue with the substance presented below.
**Query** Identify measured metabolised at 4 h, 0.1 mg/mL corresponding to KRLFKRLFKYLRRF-NH2 [LP01]
**Result** > 50%

----------
Tested on: human plasma proteases
Test: in vitro
Where a SMILES comes first, the peptide text is derived from it. [ ]: non-standard residue; d: D form. hArg = N=C(N)NCCCC[C@H](N)C(=O)O; 2Thi = N[C@@H](Cc1cccs1)C(=O)O
Items are presented alongside their recorded metabolised at 2 h, 0.1 mg/mL.

{"Molecule": "CC(C)C[C@H](NC(=O)[C@H](Cc1ccc(O)cc1)NC(=O)[C@H](CCCCN)NC(=O)[C@H](CC(C)C)NC(=O)[C@H](CC(C)C)NC(=O)[C@@H](CCCCN)NC(=O)[C@@H](CCCCN)NC(=O)[C@H](Cc1ccccc1)NC(=O)[C@H](CC(C)C)NC(=O)[C@H](CCCNC(=N)N)NC(=O)[C@@H](N)CCCCN)C(=O)N[C@@H](CCCNC(=N)N)C(=O)N[C@H](CCCCN)C(=O)N[C@@H](Cc1ccccc1)C(N)=O [DP04] (H-KRLF[dK][dK]LLKYLR[dK]F-NH2)", "Test system": "human plasma proteases", "Measured result": "> 40%"}
{"Molecule": "CC(C)C[C@H](NC(=O)[C@H](Cc1ccc(O)cc1)NC(=O)[C@H](CCCCN)NC(=O)[C@H](CC(C)C)NC(=O)[C@H](CC(C)C)NC(=O)[C@H](CCCCN)NC(=O)[C@H](CCCCN)NC(=O)[C@H](Cc1ccccc1)NC(=O)[C@H](CC(C)C)NC(=O)[C@H](CCCNC(=N)N)NC(=O)[C@@H](N)CCCCN)C(=O)N[C@@H](CCCNC(=N)N)C(=O)N[C@@H](CCCCN)C(=O)N[C@@H](Cc1cccs1)C(N)=O [UP08] (H-KRLFKKLLKYLRK[2Thi]-NH2)", "Test system": "human plasma proteases", "Measured result": "> 40%"}

Continue with the molecule presented below.
**Query** Identify measured metabolised at 2 h, 0.1 mg/mL corresponding to CC(C)C[C@H](NC(=O)[C@H](Cc1ccc(O)cc1)NC(=O)[C@H](CCCCN)NC(=O)[C@H](CC(C)C)NC(=O)[C@H](CC(C)C)NC(=O)[C@H](CCCCN)NC(=O)[C@H](CCCCN)NC(=O)[C@H](Cc1ccccc1)NC(=O)[C@H](CC(C)C)NC(=O)[C@H](CCCNC(=N)N)NC(=O)[C@@H](N)CCCCNC(=N)N)C(=O)N[C@@H](CCCNC(=N)N)C(=O)N[C@@H](CCCCN)C(=O)N[C@@H](Cc1cccs1)C(N)=O [UP10] (H-[hArg]RLFKKLLKYLRK[2Thi]-NH2)
**Result** > 40%

----------
Tested on: A. baumannii ATCC 19606
Assay type: cell-based, Acinetobacter baumannii
Details: ATCC 19606, 20 h
Where a SMILES comes first, the peptide text is derived from it. [ ]: non-standard residue; d: D form. hArg = N=C(N)NCCCC[C@H](N)C(=O)O; 2Thi = N[C@@H](Cc1cccs1)C(=O)O; Dab = NCC[C@H](N)C(=O)O; Dap = NC[C@H](N)C(=O)O; Aib = CC(C)(N)C(=O)O
Items are presented alongside their recorded MIC.
Numbers only here, please. The scale is µg/mL.

{"Molecule": "CC(C)C[C@H](NC(=O)[C@H](Cc1ccc(O)cc1)NC(=O)[C@H](CCN)NC(=O)[C@H](CC(C)C)NC(=O)[C@H](CC(C)C)NC(=O)[C@H](CN)NC(=O)[C@H](CN)NC(=O)[C@H](Cc1ccccc1)NC(=O)[C@H](CC(C)C)NC(=O)[C@H](CCCCNC(=N)N)NC(=O)[C@@H](N)CN)C(=O)N[C@@H](CCCCNC(=N)N)C(=O)N[C@@H](CCN)C(=O)N[C@@H](Cc1ccccc1)C(N)=O [UP14] (H-[Dap][hArg]LF[Dap][Dap]LL[Dab]YL[hArg][Dab]F-NH2)", "Measured result": 4}

Continue with the molecule presented below.
**Query** Identify measured MIC corresponding to CC(C)C[C@H](NC(=O)[C@H](Cc1ccc(O)cc1)NC(=O)[C@H](CCCCN)NC(=O)[C@H](CC(C)C)NC(=O)[C@H](CC(C)C)NC(=O)[C@H](CCCCN)NC(=O)[C@H](CCCCN)NC(=O)[C@H](Cc1ccccc1)NC(=O)[C@H](CC(C)C)NC(=O)[C@H](CCCNC(=N)N)NC(=O)C(C)(C)N)C(=O)N[C@@H](CCCNC(=N)N)C(=O)N[C@@H](CCCCN)C(=O)N[C@@H](Cc1cccs1)C(N)=O [UP09] (H-[Aib]RLFKKLLKYLRK[2Thi]-NH2; N-terminus assumed)
**Result** 2

----------
Test system: human erythrocytes
Assay: Hemolytic activity assay
Assay type: cell-based
Conditions: 128 μM; human RBC in PB, 37°C, 1 h; OD420; total lysis control 0.1% SDS; three technical replicates
Where a SMILES comes first, the peptide text is derived from it. [ ]: non-standard residue; d: D form. hArg = N=C(N)NCCCC[C@H](N)C(=O)O; 2Thi = N[C@@H](Cc1cccs1)C(=O)O; Dab = NCC[C@H](N)C(=O)O; Dap = NC[C@H](N)C(=O)O
Measured endpoint: Hemolysis rate (%)
Numbers only here, please. The scale is %.

{"Molecule": "CC(C)C[C@H](NC(=O)[C@H](CCCCN)NC(=O)[C@H](CCCCN)NC(=O)[C@H](Cc1ccccc1)NC(=O)[C@H](CC(C)C)NC(=O)[C@H](CCCNC(=N)N)NC(=O)[C@@H](N)CCCCN)C(=O)N[C@@H](CC(C)C)C(=O)N[C@@H](CCCCN)C(=O)N[C@@H](Cc1ccc(O)cc1)C(=O)N[C@@H](CC(C)C)C(=O)N[C@@H](CCCNC(=N)N)C(=O)N[C@H](CCCCN)C(=O)N[C@@H](Cc1ccccc1)C(N)=O [DP03] (H-KRLFKKLLKYLR[dK]F-NH2)", "Hemolysis rate (%)": 51.55}
{"Molecule": "CC(C)C[C@H](NC(=O)[C@H](Cc1ccc(O)cc1)NC(=O)[C@H](CCN)NC(=O)[C@H](CC(C)C)NC(=O)[C@H](CC(C)C)NC(=O)[C@H](CCN)NC(=O)[C@H](CN)NC(=O)[C@H](Cc1cccs1)NC(=O)[C@H](CC(C)C)NC(=O)[C@H](CCCNC(=N)N)NC(=O)[C@@H](N)CCN)C(=O)N[C@@H](CCCCNC(=N)N)C(=O)N[C@@H](CCN)C(=O)N[C@@H](Cc1ccccc1)C(N)=O [UP15] (H-[Dab]RL[2Thi][Dap][Dab]LL[Dab]YL[hArg][Dab]F-NH2)", "Hemolysis rate (%)": 97.86}
{"Molecule": "CC(C)C[C@H](NC(=O)[C@H](Cc1ccc(O)cc1)NC(=O)[C@H](CCCCN)NC(=O)[C@H](CC(C)C)NC(=O)[C@H](CC(C)C)NC(=O)[C@@H](CCCCN)NC(=O)[C@@H](CCCCN)NC(=O)[C@H](Cc1ccccc1)NC(=O)[C@H](CC(C)C)NC(=O)[C@@H](CCCNC(=N)N)NC(=O)[C@H](N)CCCCN)C(=O)N[C@@H](CCCNC(=N)N)C(=O)N[C@H](CCCCN)C(=O)N[C@@H](Cc1ccccc1)C(N)=O [DP05] (H-[dK][dR]LF[dK][dK]LLKYLR[dK]F-NH2)", "Hemolysis rate (%)": 45.07}

**Query** Identify measured Hemolysis rate (%) corresponding to CC(C)C[C@H](NC(=O)[C@H](Cc1ccc(O)cc1)NC(=O)[C@H](CCCCN)NC(=O)[C@H](CC(C)C)NC(=O)[C@H](CC(C)C)NC(=O)[C@H](CCCCN)NC(=O)[C@H](CCCCN)NC(=O)[C@H](Cc1ccccc1)NC(=O)[C@H](CC(C)C)NC(=O)[C@H](CCCNC(=N)N)NC(=O)[C@@H](N)CCCCN)C(=O)N[C@@H](CCCNC(=N)N)C(=O)N[C@@H](CCCCN)C(=O)N[C@@H](Cc1cccs1)C(N)=O [UP08] (H-KRLFKKLLKYLRK[2Thi]-NH2)
**Result** 86.84
